- target-desc: HSA-FcγRIIa (Homo sapiens, UniProt P02768+P12318)
- Sequence (P02768+P12318 fused): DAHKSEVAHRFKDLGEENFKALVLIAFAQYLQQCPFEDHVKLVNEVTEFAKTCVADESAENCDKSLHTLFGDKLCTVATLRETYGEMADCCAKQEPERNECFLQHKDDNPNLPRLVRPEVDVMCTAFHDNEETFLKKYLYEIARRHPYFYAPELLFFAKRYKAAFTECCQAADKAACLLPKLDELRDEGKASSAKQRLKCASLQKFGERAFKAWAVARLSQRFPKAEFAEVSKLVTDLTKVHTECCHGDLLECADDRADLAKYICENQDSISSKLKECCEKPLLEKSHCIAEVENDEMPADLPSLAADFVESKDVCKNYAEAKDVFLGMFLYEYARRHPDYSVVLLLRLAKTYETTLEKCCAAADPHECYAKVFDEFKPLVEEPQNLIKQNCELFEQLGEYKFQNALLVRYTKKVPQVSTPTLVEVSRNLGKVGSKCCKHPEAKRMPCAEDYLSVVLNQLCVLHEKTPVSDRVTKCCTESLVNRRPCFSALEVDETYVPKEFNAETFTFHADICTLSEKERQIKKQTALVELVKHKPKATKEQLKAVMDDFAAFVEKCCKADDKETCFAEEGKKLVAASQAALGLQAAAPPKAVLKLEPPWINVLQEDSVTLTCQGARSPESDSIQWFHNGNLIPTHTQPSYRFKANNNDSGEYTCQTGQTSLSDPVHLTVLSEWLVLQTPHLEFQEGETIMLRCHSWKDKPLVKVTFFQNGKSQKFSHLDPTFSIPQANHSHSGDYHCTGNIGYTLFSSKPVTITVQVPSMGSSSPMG
- run-description: ELISA Inhibition Assay: inhibition of human IgG complex binding to plate-bound HSA-FcγRIIa
- test-context: HSA-FcγRIIa 5 μg/ml on plate, human IgG complex 0.2 μg/ml
- Description: The compounds may also be screened using an ELISA inhibition assay to detect the blockade of IgG interaction with FcγRIIa. Compounds were also screened using an ELISA Inhibition Assay. Human Serum Albumin genetically fused to FcγRIIa (HSA-FcγRIIa) was bound to an ELISA plate at a concentration of 5 μg/ml. […] A human IgG complex (0.2 μg/ml) is then added to the plate and the extent of inhibition of IgG binding by the small molecule inhibitors was measured using HRP labelled anti-human antibody.
property: IC50 (mM)

>  <smiles-str>
C/C(=C1\SC(=S)N(CC(=O)O)C1=O)c1cccc(O)c1

>  <IC50 (mM)>
2

$$$$
>  <smiles-str>
O=C(O)/C=C/c1ccc(OCCc2ccccc2)cc1

>  <IC50 (mM)>
7.2

$$$$
>  <smiles-str>
O=C(O)c1sc2ccccc2c1OCc1ccccc1

>  <IC50 (mM)>
1.6

$$$$
>  <smiles-str>
N#Cc1cccc(C(=O)CSc2ccc(C(=O)O)cc2)c1

>  <IC50 (mM)>
6.8

$$$$
>  <smiles-str>
O=C(O)c1cccc(SCC(=O)c2ccccc2)c1

>  <IC50 (mM)>
6

$$$$
>  <smiles-str>
O=C(O)c1cccc(C(=O)CSc2ccccc2C(=O)O)c1

>  <IC50 (mM)>
7

$$$$
>  <smiles-str>
C/C(=C(/S)C(=O)NCC(=O)O)c1cccc(O)c1

>  <IC50 (mM)>
1

$$$$
>  <smiles-str>
O=C(O)c1cccc([S+]([O-])c2cccc(C(=O)O)c2)c1

>  <IC50 (mM)>
2.8

$$$$
>  <smiles-str>
O=C(/C=C/c1ccccc1C(=O)O)c1ccc[nH]1

>  <IC50 (mM)>
17.5

$$$$
>  <smiles-str>
O=C(O)c1ccc2c(c1)C(=O)c1cc(C(=O)O)ccc1-2

>  <IC50 (mM)>
12.2

$$$$

(P) O=C(O)CCCCCNC(=O)OCc1ccccc1
(Q) Cc1c(C(C)(C)C)cc(/C=C(\C#N)C(=O)O)cc1C(C)(C)C
Record comparison, field IC50: mark the lower of P and Q . Response format: the label of the selected entry.
Q

(1) O=C(O)c1cccc(C(=O)CSCC(=O)c2cccc(C(=O)O)c2)c1
(2) N#Cc1cccc(C(=O)CSc2cccc(C(=O)O)c2)c1
(3) O=C(O)c1sc2cc([N+](=O)[O-])ccc2c1Cl
Rank ascending by IC50. Form field (ranking): labels in requested order.
2, 1, 3
(2: 3 mM, 1: 5.6 mM, 3: 17.5 mM)

###

- target-desc: FcγRIIa (Homo sapiens, UniProt P12318)
- Construct: endogenous in cells; host or cells: washed human platelets
- run-description: FACS assay of activation of human platelets by heat aggregated IgG (HAGG), P-Selectin expression
- Assay type: cell-based
- test-context: primary screen, single concentration of inhibitor 500 μg/ml, HAGG 40 μg/ml; several values = repeat determinations; read-out: % Inhibition of platelet Activation
property: inhibition at 500 µg/mL (%)

>  <smiles-str>
O=C(O)c1cccc(/C=N/c2cc(C(=O)O)cc(C(=O)O)c2)c1

>  <inhibition at 500 µg/mL / %>
8

$$$$

(P) O=C(O)c1cccc(/C=N/c2cccc(C(=O)O)c2)c1
(Q) O=C(Nc1cccc(C(=O)O)c1)Nc1cccc(C(=O)O)c1
(R) O=C(O)c1cccc(CNc2cccc(C(=O)O)c2)c1
(S) O=C(O)c1ccc(/C=N/c2cccc(C(=O)O)c2)cc1
Reorder: inhibition at 500 µg/mL, max to min. List the labels in the requested order.
S, Q, P, R
(S: 83%, Q: 22%, P: 13%, R: 7%)

###

- target-desc: FcγRIIa (Homo sapiens, UniProt P12318)
- Construct: endogenous in cells; host or cells: washed human platelets
- Sequence (P12318 34-317): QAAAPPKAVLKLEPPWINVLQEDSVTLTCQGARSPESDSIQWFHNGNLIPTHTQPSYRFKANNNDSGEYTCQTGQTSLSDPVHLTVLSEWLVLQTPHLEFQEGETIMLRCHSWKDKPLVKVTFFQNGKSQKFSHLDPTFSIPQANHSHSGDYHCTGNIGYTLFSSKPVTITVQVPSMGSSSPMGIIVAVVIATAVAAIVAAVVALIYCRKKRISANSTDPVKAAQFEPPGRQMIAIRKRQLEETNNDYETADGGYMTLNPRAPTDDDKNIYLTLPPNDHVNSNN
- run-description: FACS assay of activation of human platelets by heat aggregated IgG (HAGG), P-Selectin expression
- Assay type: cell-based
- test-context: in vitro testing, summary table; read-out: IC50 Platelet Inhibition
- Method: The compounds of Table 1 were screened in a FcγRIIa dependent platelet activation assay and/or aggregation assay where platelets are activated using heat aggregated human immunoglobulin G as an immune complex. […] The compounds of the present invention were initially screened in a rapid FACS screening assay, measuring activation of human platelets by heat aggregated IgG. […] Activation is measured by the appearance of the protein P-Selectin on the platelet membrane after exposure to various stimuli. […]
property: IC50 (µM)

Please review the entries below; each comes with its answer.
>  <smiles-str>
N#CCCCSc1cccc(C(=O)O)c1

>  <u>
µM

>  <IC50>
330

$$$$
>  <smiles-str>
O=C(O)CCCCCNC(=O)OCc1ccccc1

>  <u>
µM

>  <IC50>
1300

$$$$
>  <smiles-str>
O=C(O)c1sc2ccccc2c1OCc1ccccc1

>  <u>
µM

>  <IC50>
520

$$$$
>  <smiles-str>
Cc1c(C(C)(C)C)cc(/C=C(\C#N)C(=O)O)cc1C(C)(C)C

>  <u>
µM

>  <IC50>
290

$$$$
>  <smiles-str>
O=C(O)c1ccc2c(c1)C(=O)c1cc(C(=O)O)ccc1-2

>  <u>
µM

>  <IC50>
610

$$$$
>  <smiles-str>
O=C(O)c1sc2cc([N+](=O)[O-])ccc2c1Cl

>  <u>
µM

>  <IC50>
780

$$$$
>  <smiles-str>
C/C(=C1\SC(=S)N(CC(=O)O)C1=O)c1cccc(O)c1

>  <u>
µM

>  <IC50>
220

$$$$
>  <smiles-str>
O=C(O)c1cccc(C(=O)CSCC(=O)c2cccc(C(=O)O)c2)c1

>  <u>
µM

>  <IC50>
520

$$$$
>  <smiles-str>
N#Cc1cccc(C(=O)CSc2cccc(C(=O)O)c2)c1

>  <u>
µM

>  <IC50>
250

$$$$
>  <smiles-str>
O=C(/C=C/c1ccccc1C(=O)O)c1ccc[nH]1

>  <u>
µM

>  <IC50>
270

$$$$

(A) N#Cc1cccc(C(=O)CSc2ccccc2C(=O)O)c1
(B) O=C(O)c1cccc(C(=O)CSc2ccccc2C(=O)O)c1
# min-compare on IC50 between A and B Please respond with the label that marks your chosen entry.
B

###

- target-desc: FcγRIIa (Homo sapiens)
- Construct: endogenous in cells; host or cells: washed human platelets
- run-description: FACS assay of activation of human platelets by heat aggregated IgG (HAGG), P-Selectin expression
- Format: cell-based
- test-context: washed human platelets, HAGG as agonist; several values in a cell = repeat determinations; '(ICnn)' after a '<' bound = inhibition level at that concentration; read-out: Concentration at 50% inhibition of platelet activation by HAGG
pIC50: −log10 of the molar value.
property: pIC50

Reference set (5 entries):
>  <compound>
COc1ccc2sc(C(=O)Nc3nnn[nH]3)c(OC(C)C)c2c1[N+](=O)[O-] [Compound 092]

>  <assay-value>
3.36

$$$$
>  <compound>
O=C(O)c1cccc([S+]([O-])c2cccc(C(=O)O)c2)c1 [Compound 032]

>  <assay-value>
4.15

$$$$
>  <compound>
Cc1c(C(C)(C)C)cc(/C=C(\C#N)C(=O)O)cc1C(C)(C)C [Compound 350]

>  <assay-value>
3.54

$$$$
>  <compound>
O=C(O)c1cccc(C(=O)CSCC(=O)c2cccc(C(=O)O)c2)c1 [Compound 292]

>  <assay-value>
3.28

$$$$
>  <compound>
O=C(O)c1ccc(SCC(=O)c2ccccc2)cc1 [Compound 384]

>  <assay-value>
3.77

$$$$

(1) N#Cc1cccc(C(=O)CSc2ccccc2C(=O)O)c1 [Compound 411]
(2) O=C(O)c1ccc(C(=O)CSc2ccccc2C(=O)O)cc1 [Compound 410]
1 or 2 : whose pIC50 is greater? Reply with the label of the item you choose.
2

(A) O=C(O)c1sc2ccccc2c1OCc1ccccc1 [Compound 333]
(B) N#Cc1cccc(C(=O)CSc2cccc(C(=O)O)c2)c1 [Compound 216]
Higher pIC50: A or B ? Answer with the label corresponding to your selection.
B
(B: 3.62, A: 3.28)
